Give measured CC50 for each item. Keep answers brief.
Experiment: Cytotoxicity against human MT4 cells by MTT assay
Format: cell-based
// return numeric value only (unit: µM, not printed)

stdin: Return CC50 for the following compound: O=[N+]([O-])c1cc(NC(=S)OCCc2ccccn2)ccc1Cl
stdout: 41

stdin: Return CC50 for the following compound: FC(F)(F)c1cc(NC(=S)OCCc2ccccn2)ccc1Cl
stdout: 42

stdin: Return CC50 for the following compound: S=C(Nc1cccc(Cl)c1)OCCc1ccccn1
stdout: 47

stdin: Return CC50 for the following compound: S=C(Nc1ccc(Br)cc1)OCCc1ccccn1
stdout: 37

stdin: Return CC50 for the following compound: S=C(Nc1ccc(Cl)cc1)OCCc1ccccn1
stdout: 52

stdin: Return CC50 for the following compound: Cc1ccc(NC(=S)OCCc2ccccn2)cc1
stdout: 75

====

Experiment: Cytotoxicity against human MT4 cells by MTT assay
Format: cell-based
READOUT NAME: CC50 (µM)
// return numeric value only (unit: µM, not printed)

stdin: Return CC50 for the following compound: FC(F)(F)c1ccc(NC(=S)OCCc2ccccn2)cc1
stdout: 50

stdin: Return CC50 for the following compound: Cc1ccc(NC(=S)OCCc2ccccn2)cc1Cl
stdout: 59

stdin: Return CC50 for the following compound: CCc1ccc(NC(=S)OCCc2ccccn2)cc1
stdout: 44

stdin: Return CC50 for the following compound: COc1ccc(NC(=S)OCCc2ccncc2)cc1
stdout: 59

stdin: Return CC50 for the following compound: COc1ccc(NC(=S)OCCc2ccccn2)cc1
stdout: 48

stdin: Return CC50 for the following compound: N#Cc1ccc(NC(=S)OCCc2ccccn2)cc1
stdout: 45

stdin: Return CC50 for the following compound: S=C(Nc1ccc(Cl)c(Cl)c1)OCCc1ccccn1
stdout: 40

====

Give measured CC50 for each item. Keep answers brief.
Assay: Cytotoxicity against human MT4 cells by MTT assay
Format: cell-based

stdin: Return CC50 for the following compound: S=C(Nc1ccc(Cl)cc1)OCCc1ccccc1
stdout: > 100 µM

stdin: Return CC50 for the following compound: O=[N+]([O-])c1cccc(NC(=S)OCCc2ccccn2)c1
stdout: 100 µM

stdin: Return CC50 for the following compound: S=C(Nc1ccccc1)OCCc1ccccn1
stdout: > 100 µM

stdin: Return CC50 for the following compound: S=C(Nc1ccc(Cl)cc1Cl)OCCc1ccccn1
stdout: > 100 µM

stdin: Return CC50 for the following compound: S=C(Nc1ccc(Cl)cc1)OCCc1ccncc1
stdout: 70 µM

stdin: Return CC50 for the following compound: Fc1ccc(NC(=S)OCCc2ccccn2)cc1
stdout: > 100 µM

stdin: Return CC50 for the following compound: S=C(Nc1ccc(I)cc1)OCCc1ccccn1
stdout: 34 µM

stdin: Return CC50 for the following compound: CN(C)c1ccc(NC(=S)OCCc2ccccn2)cc1
stdout: 60 µM

stdin: Return CC50 for the following compound: Cc1ccc(NC(=S)OCCc2ccncc2)cc1
stdout: > 100 µM

stdin: Return CC50 for the following compound: S=C(Nc1ccccc1)OCCc1cccs1
stdout: > 100 µM

stdin: Return CC50 for the following compound: CC(C)c1ccc(NC(=S)OCCc2ccccn2)cc1
stdout: 45 µM

stdin: Return CC50 for the following compound: Fc1cccc(F)c1NC(=S)OCCc1ccccn1
stdout: > 100 µM

stdin: Return CC50 for the following compound: Fc1ccc(F)c(NC(=S)OCCc2ccccn2)c1
stdout: > 100 µM

FYI, the data here is from ChEMBL document CHEMBL1156535.
